Values from patent US20140314857A1

test-name: Intravenous and intraduodenal (bolus) bioavailability of zanamivir from Capmul MCM L8 25, 50, 75 µL (Example 7)
run-conditions: male, Sprague-Dawley, rat, in vivo, 1.5 mg/animal, Plasma concentration, intraduodenal bolus, 75 μL Capmul MCM L8; 1.0 hr; rat 964
Procedure: Male Sprague-Dawley rats (Hilltop Labs), 3 animals per treatment group, 250-350 grams in weight, were fitted with a jugular vein cannula (JVC). Animals intended for intraduodenal dosing were also fitted with one or more intraduodenal cannula (IDC) and those intended for intravenous dosing were fitted with a second JVC. […] In this example, the bioavailability of Zanamivir was evaluated after intraduodenal doses in male Sprague-Dawley rats. […] Plasma levels were determined by LC-MS/MS analysis. […]
test-readout: concentration at 1 hr (ng/mL)
Hi! Could you send only the number? It should be in ng/mL, unit omitted.

Form field: reported concentration at 1 hr of CC(=O)NC1C(NC(=N)N)C=C(C(=O)O)OC1C(O)C(O)CO (stereo not shown)
807

----------
test-name: Intravenous and intraduodenal bioavailability of zanamivir from three formulations (Example 5)
run-conditions: male, Sprague-Dawley, rat, in vivo, 1.5 mg/animal, Plasma concentration, ID 1.5 mg/animal, Glycerol 50 µL; 0.5 hr; individual rats
test-readout: concentration at 0.5 hr (ng/mL)
Hi! Could you send only the number? It should be in ng/mL, unit omitted.

Form field: reported concentration at 0.5 hr of CC(=O)NC1C(NC(=N)N)C=C(C(=O)O)OC1C(O)C(O)CO (stereo not shown) [Zanamivir]
817

----------
test-name: Intravenous and intraduodenal (bolus) bioavailability of zanamivir from Capmul MCM L8 25, 50, 75 µL (Example 7)
run-conditions: male, Sprague-Dawley, rat, in vivo, iv, 1.5 mg/animal, Plasma concentration, IV 1.5 mg/animal, Normal Saline, Ex.7; 0.083 hr; mean
test-readout: concentration at 0.083 hr

Form field: reported concentration at 0.083 hr of CC(=O)NC1C(NC(=N)N)C=C(C(=O)O)OC1C(O)C(O)CO (stereo not shown)
12300 ng/mL

----------
test-name: Intraduodenal bioavailability of zanamivir from glycerol and PBS formulations, enhancer pre-dose (Example 6)
run-conditions: male, Sprague-Dawley, rat, in vivo, 1.5 mg, tmax, ID 1.5 mg/animal, 50 µL PBS, 150 µL blank glycerol -2 hr; mean
test-readout: Tmax
Quick note: number first, unit second.

Form field: reported Tmax of CC(=O)NC1C(NC(=N)N)C=C(C(=O)O)OC1C(O)C(O)CO (stereo not shown)
45 min

----------
test-name: Intravenous and intraduodenal (bolus) bioavailability of zanamivir from Capmul MCM L8 25, 50, 75 µL (Example 7)
run-conditions: male, Sprague-Dawley, rat, in vivo, 1.5 mg/animal, Plasma concentration, intraduodenal bolus, 75 μL Capmul MCM L8; 2.0 hr; rat 963
Method: Male Sprague-Dawley rats (Hilltop Labs), 3 animals per treatment group, 250-350 grams in weight, were fitted with a jugular vein cannula (JVC). Animals intended for intraduodenal dosing were also fitted with one or more intraduodenal cannula (IDC) and those intended for intravenous dosing were fitted with a second JVC. […] In this example, the bioavailability of Zanamivir was evaluated after intraduodenal doses in male Sprague-Dawley rats. […] Plasma levels were determined by LC-MS/MS analysis. […]
test-readout: concentration at 2 hr (ng/mL)
Hi! Could you send only the number? It should be in ng/mL, unit omitted.

Form field: reported concentration at 2 hr of CC(=O)NC1C(NC(=N)N)C=C(C(=O)O)OC1C(O)C(O)CO (stereo not shown)
180
